pKi: −log10 of the molar value.
A compilation of published pKi results with Muscarinic acetylcholine receptor M4 (Homo sapiens, UniProt P08173).
Sequence (P08173 whole entry): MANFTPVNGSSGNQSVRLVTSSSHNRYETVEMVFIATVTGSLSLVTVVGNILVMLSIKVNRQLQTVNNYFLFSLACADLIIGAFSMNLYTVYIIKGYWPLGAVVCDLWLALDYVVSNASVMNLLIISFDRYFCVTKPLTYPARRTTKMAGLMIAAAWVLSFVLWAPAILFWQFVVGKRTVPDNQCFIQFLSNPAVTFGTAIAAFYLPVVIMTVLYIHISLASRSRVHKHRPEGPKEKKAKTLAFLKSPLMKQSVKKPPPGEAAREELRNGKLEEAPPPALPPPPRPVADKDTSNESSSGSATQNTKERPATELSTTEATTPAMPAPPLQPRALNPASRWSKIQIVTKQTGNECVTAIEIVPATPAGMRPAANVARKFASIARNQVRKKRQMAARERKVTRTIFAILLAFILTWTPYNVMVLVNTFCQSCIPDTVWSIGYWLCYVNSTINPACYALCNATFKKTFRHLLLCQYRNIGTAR
measured_endpoint: pKi

>>> obs_value("O=C(CCN1CCCc2ccccc21)Nc1nccs1")
4.23
>>> obs_value("CCN(CC)c1ccc(/C=C/c2cc[n+](CCC[N+](CC)(CC)CC)cc2)cc1")
6.92
>>> obs_value("O=C(NCC1CCNCC1)[C@H]1CCCN1C(=O)[C@@H]1C[C@@H](O)CN1C(=O)CC(c1ccc(Cl)cc1)(c1ccc(Cl)cc1)c1ccc(Cl)cc1")
7.28
>>> obs_value("O=C1CCc2ccccc2N1CCCN1CCN(CCc2ccccc2)CC1")
5.29
>>> obs_value("CN(CCCc1cccc(F)c1)[C@H]1C2C3CC4C2C(=O)C2C4C3C21 (some centres not stated)")
6.21
>>> obs_value("NCC(=O)NC1CCN(CC(=O)N2c3ccccc3NC(=O)c3ccccc32)CC1")
5.96
>>> obs_value("OC(CCCN1CCNCC1)(c1ccccc1)c1ccccc1")
5.93
>>> obs_value("CSc1ccc(CC2NCCc3c2[nH]c2ccccc32)cc1 (configuration not stated)")
4.17
>>> obs_value("CN(C)c1ccc2c(-c3ccc(-c4cn(CCCCCn5cc(CCCCCCN6CCC(OC(=O)Nc7ccc(F)cc7-c7ccc(F)c(Cl)c7)CC6)nn5)nn4)cc3C(=O)[O-])c3ccc(=[N+](C)C)cc-3oc2c1")
8.42
>>> obs_value("CN1CCC=C(c2nsnc2OCCCCCCCCCCCC2CCN(CCCN3C(=O)CCc4ccccc43)CC2)C1")
8.18
>>> obs_value("CN(/C=N/c1ccc2c(c1)C(O)CC2)Cc1ccccc1 (configuration not stated)")
4.72
>>> obs_value("CC(C1=C(CCN2CCCCC2)Cc2ccccc21)c1ccccn1 (configuration not stated)")
5.72
>>> obs_value("Cc1ccc2c(c1)C(C(C)c1ccccn1)=C(CCN(C)C)C2 (configuration not stated)")
5.49
>>> obs_value("CCOC(=O)c1c(C)[nH]c2ccc3c(c12)CN1CCc2cc(OC)ccc2C1O3 (configuration not stated)")
8.19
>>> obs_value("O=C(NCC1CCN(C2CCCC2)CC1)[C@H]1CCCN1C(=O)[C@@H]1C[C@@H](O)CN1C(=O)CC(c1ccc(F)cc1)(c1ccc(F)cc1)c1ccc(F)cc1")
7.32
>>> obs_value("O=C(CCN1CCCc2ccccc21)N1CCC[C@H]1CO")
4.89
>>> obs_value("C[N+]1(CCCC(O)(c2ccccc2)c2ccccc2)CCCCC1")
6.54
>>> obs_value("C[N+]1=C(/C=C/C=C/C=C2/N(CCCCCC(=O)NCCN3CCN(CCCCC4CCN(CC(=O)N5c6ccccc6NC(=O)c6ccccc65)CC4)CC3)c3ccccc3C2(C)C)C(C)(C)c2ccccc21")
7.73
>>> obs_value("CCn1c2ccccc2c2ccc(NCC(=O)N3CCCCC3)cc21")
4.04
>>> obs_value("CCN1CCC(CNC(=O)[C@H]2CCCN2C(=O)[C@@H]2C[C@@H](O)CN2C(=O)CC(c2ccc(F)cc2)(c2ccc(F)cc2)c2ccc(F)cc2)CC1")
7.04
>>> obs_value("O=C1CCc2ccccc2N1CCCN1CCC(CCCO)CC1")
6.23
>>> obs_value("CN1CCC=C(c2nsnc2OCCCCCCCCCOc2nsnc2C2=CCCN(C)C2)C1")
9.11
>>> obs_value("CN1CCC=C(c2nsnc2OCCCC2CCN(CCCN3C(=O)CCc4ccccc43)CC2)C1")
7.58
>>> obs_value("COc1nsc(OCCCOCCCOCCCOc2nsnc2C2=CCCN(C)C2)n1")
6.80
>>> obs_value("CCCOC1CCCc2ccc(/N=C/N3CCc4cc(OC)c(OC)cc4C3)cc21 (configuration not stated)")
4.92
>>> obs_value("COc1cc2c(cc1OC)CN(/C=N/c1ccc3c(c1)N(C(=O)OC(C)(C)C)CC3)CC2")
4.30
>>> obs_value("COc1ccc2c(c1)CC(CCN(C)C)=C2C(C)c1ccccn1 (configuration not stated)")
5.38
>>> obs_value("O=C(NCC1CCNCC1)[C@H]1CCCN1C(=O)[C@@H]1C[C@@H](O)CN1C(=O)CC(c1ccc(F)cc1)(c1ccc(F)cc1)c1ccc(F)cc1")
7.38
>>> obs_value("O=C(CCNC(=O)[C@@H]1CCCN1C(=O)CC(c1ccccc1)(c1ccccc1)c1ccccc1)NC[C@H]1CCCN(CC2CCCCC2)C1")
7.96
>>> obs_value("O=C(CN1CCCc2ccc(O)cc21)N1CCCCC1")
4.06
>>> obs_value("N=C(N)NCCC[C@H](N)C(=O)NCCN1CCN(CCCCC2CCN(CC(=O)N3c4ccccc4NC(=O)c4ccccc43)CC2)CC1")
9.10
>>> obs_value("C=C(c1ccc([S@@+]([O-])c2ccc(OC)cc2)cc1)C1CCN(C2CCCCC2)CC1")
10.05
